target: A2 receptor (Homo sapiens, UniProt P29274); construct: human platetlet membranes; from tissue; host or cells: human platelet membranes; experiment: antagonism of NECA-induced stimulation of adenylate cyclase activity in human platelet membranes; assay type: biochemical; settings: antagonism of NECA-stimulated adenylate cyclase, human platelet membranes; means with 95% confidence limits from 3 experiments; read-out: A2 receptor KB
Sequence (P29274 whole entry): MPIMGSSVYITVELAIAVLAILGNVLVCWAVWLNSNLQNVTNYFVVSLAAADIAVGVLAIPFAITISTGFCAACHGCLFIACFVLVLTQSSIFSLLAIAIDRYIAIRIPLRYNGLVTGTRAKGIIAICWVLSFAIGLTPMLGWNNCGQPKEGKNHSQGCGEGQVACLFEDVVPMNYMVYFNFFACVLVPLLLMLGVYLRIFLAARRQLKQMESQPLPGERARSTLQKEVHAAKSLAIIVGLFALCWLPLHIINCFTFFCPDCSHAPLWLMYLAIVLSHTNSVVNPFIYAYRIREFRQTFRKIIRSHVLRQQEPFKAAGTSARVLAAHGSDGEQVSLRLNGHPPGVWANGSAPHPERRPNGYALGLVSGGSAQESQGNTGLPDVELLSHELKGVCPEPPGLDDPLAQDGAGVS

{"Compound": "CCCn1c(=O)c2[nH]c(-c3ccc(OCC(=O)NCCNC(=O)[C@H](N)CCCCN)cc3)nc2n(CCC)c1=O [Compound 61c]", "Assay target": "A2 receptor (Homo sapiens, UniProt P29274)", "Kb, nM": 37}
{"Compound": "CCn1c(=O)c2[nH]c(-c3ccc(OCC(=O)Nc4ccc(CC(=O)OC)cc4)cc3)nc2n(CC)c1=O [Compound 58b]", "Assay target": "A2 receptor (Homo sapiens, UniProt P29274)", "Kb, nM": 210}
{"Compound": "CCn1c(=O)c2[nH]c(-c3ccc(OCC(=O)Nc4ccc(CC(=O)NCCN)cc4)cc3)nc2n(CC)c1=O [Compound 59b]", "Assay target": "A2 receptor (Homo sapiens, UniProt P29274)", "Kb, nM": 28}
{"Compound": "CCn1c(=O)c2[nH]c(-c3ccc(OCC(=O)OC(C)C)cc3)nc2n(CC)c1=O [Compound 54b]", "Assay target": "A2 receptor (Homo sapiens, UniProt P29274)", "Kb, nM": 73}

====

Molecular target: A1 adenosine receptors (Rattus norvegicus, UniProt P25099)
Construct: rat cerebral cortex membranes; from tissue; host or cells: rat cerebral cortex membranes
Sequence (P25099 1-326): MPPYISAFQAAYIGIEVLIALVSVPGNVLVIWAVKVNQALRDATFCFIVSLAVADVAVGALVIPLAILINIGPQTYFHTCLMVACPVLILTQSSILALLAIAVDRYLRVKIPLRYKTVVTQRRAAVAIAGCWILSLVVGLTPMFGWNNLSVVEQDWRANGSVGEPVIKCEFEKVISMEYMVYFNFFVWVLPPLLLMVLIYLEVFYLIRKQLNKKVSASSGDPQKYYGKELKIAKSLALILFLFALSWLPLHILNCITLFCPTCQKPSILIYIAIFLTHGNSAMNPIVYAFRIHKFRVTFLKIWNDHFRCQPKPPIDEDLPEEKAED
Test: membrane binding assay at A1 adenosine receptors (Tables 1 and 2)
pKi: −log10 of the molar value. Counter-ions that a name gives are not always drawn.
Item-by-item account of pKi
Observable: pKi

{"Compound": "CCCn1c(=O)c2[nH]c(-c3ccc(OCC(=O)NCCNC(=O)CC[C@H](N)C(=O)OCc4ccccc4)cc3)nc2n(CCC)c1=O [TFA.HGlu(XAC)OBzl]", "Test result": 8.74}
{"Compound": "CCCn1c(=O)c2[nH]c(-c3ccc(OCC(=O)NCCNC(=O)CNC(=O)[C@@H](N)Cc4ccc(O)cc4)cc3)nc2n(CCC)c1=O [Compound 22]", "Test result": 8.28}
{"Compound": "CCCn1c(=O)c2[nH]c(-c3ccc(OCC(=O)NCCNC(=O)[C@@H](NC(=O)[C@@H](N)Cc4ccc(O)cc4)C(C)C)cc3)nc2n(CCC)c1=O [Compound 26]", "Test result": 8.52}

====

target: A1 receptor (Rattus norvegicus); construct: rat cerebral cortex membranes; from tissue; host or cells: rat cerebral cortex membranes; experiment: inhibition of [3H]PIA binding to rat cerebral cortex membranes; conditions: read-out: Ki (A1-potency)
pKi: −log10 of the molar value.

{"Compound": "CCn1c(=O)c2[nH]c(-c3ccc(OCC(=O)N(C)CCN(C)C)cc3)nc2n(CC)c1=O [tri-methyl substition of 56b]", "Assay target": "A1 receptor (Rattus norvegicus)", "pKi": 8.82}
